Assay: Human HepG2 cell viability assay in 384 well format
Assay type: toxicity, cell-based
Parameters: dose 125 nL, time 70.5 hour; concentration not given beside the values
Conditions: HepG2 cells, read-out: Inhibition
outcome measure: cytotoxicity at 70.5 h (%)
Please state the figure in %; there is no need to write the unit.

Field cytotoxicity at 70.5 h (entry CCC(=O)N(CC)CCc1nccs1 ) reads -9.4

Form: compound = Cc1nc(-c2noc3ccc(C(=O)NCCN(C)C)cc23)co1 ; cytotoxicity at 70.5 h = -7.57

Recorded result, OC(CNCCn1cccn1)c1ccc(F)c(F)c1 (stereo unspecified) , cytotoxicity at 70.5 h: 0.389

Entry under test: CS(=O)(=O)CCCNC1CCCN(Cc2noc(C3CC3)n2)C1 (stereo unspecified) . Its cytotoxicity at 70.5 h was -7.07

cytotoxicity at 70.5 h in this record for CNC(=O)[C@@H]1CN(C(=O)COC)C[C@H]1c1ccnc(N2CCCC2)n1 : -5.21

For CC(C)(C)c1n[nH]cc1CNC1CCC(C(F)(F)F)CC1 (stereo unspecified) the compound record lists cytotoxicity at 70.5 h as -0.127

Data point: Cc1nc(C)c(CNC[C@@]2(COc3cccnc3)C[C@@H](O)[C@@H](O)C2)s1 ; cytotoxicity at 70.5 h = -4.67

Value of measured cytotoxicity at 70.5 h for the entry Cc1cccnc1NC(=O)C1CCCN(c2cccc(C(F)(F)F)n2)C1 (stereo unspecified) : -0.942

cytotoxicity at 70.5 h in this record for N[C@@H]1c2ccccc2C2(CCN(c3ncccc3C(F)(F)F)CC2)[C@H]1O : 44.1

Summary for this compound, Cc1csc(C2CCCCN2C(=O)CCCn2cccn2)n1 (stereo unspecified) : cytotoxicity at 70.5 h is -11.4

// cytotoxicity at 70.5 h value for COc1ccc(CN2C[C@@H]3CCCO[C@@H]3[C@H](NC(=O)CC3CC3)C2)cc1 : 3.18

----------
Assay: Human HepG2 cell viability assay in 384 well format
Format: toxicity, cell-based
Design: dose 125 nL, time 70.5 hour; concentration not given beside the values
Conditions: HepG2 cells, read-out: Inhibition
outcome measure: cytotoxicity at 70.5 h (%)
Write the number in % without appending the unit.

Briefly, cytotoxicity at 70.5 h measured for O=C(NCc1cc2ccccc2[nH]1)C1CCCN(C(=O)N2CCCC2)C1 (stereo unspecified) : -3.92

cytotoxicity at 70.5 h measured on CCc1ccc(C(=O)N2CCN(c3nc(C)cc(OC)n3)CC2)o1 = 4.76

The molecule listed as CN(C)c1cc(C(=O)N2CCCCCC2)ccn1 shows cytotoxicity at 70.5 h equal to -8.97

The molecule listed as COCCc1noc(CN2CCN(CC(O)c3ccccc3)CC2)n1 (stereo unspecified) shows cytotoxicity at 70.5 h equal to -6.23

cytotoxicity at 70.5 h measured on CC(C)CC(CO)NC(=O)NCc1csc(N(C)C)n1 (stereo unspecified) = 0.865

Lab book: cytotoxicity at 70.5 h of CC(=O)N1CCN(C[C@H]2CC[C@@H](Cc3ccc4ncccc4c3)O2)CC1 noted as -10.6

The recorded cytotoxicity at 70.5 h for entry O=S(=O)(CC1CCCCO1)Nc1cnn(Cc2ccccc2)c1 (stereo unspecified) equals -7.62

Measured cytotoxicity at 70.5 h, CCC(NC(=O)NCc1cccc(N(C)C)n1)c1ccccc1OC (stereo unspecified) : -7.5

cytotoxicity at 70.5 h recorded for this molecule, CN(C)CCN1C[C@@H]2OCCN(Cc3cnn(C)c3)[C@@H]2C1 , is -8.58

Short answer for O=c1cc(Cn2cncn2)nc2n1CCCN(Cc1ccsc1)C2 : cytotoxicity at 70.5 h was -11.7

// sample COc1cccc(-c2nnn(C3CCN(CC(F)(F)F)C3=O)n2)c1 (stereo unspecified) , its cytotoxicity at 70.5 h was 0.471

----------
Provide the recorded cytotoxicity at 70.5 h for the entries that follow.
Experiment: Human HepG2 cell viability assay in 384 well format
Assay type: toxicity, cell-based
Set-up: dose 125 nL, time 70.5 hour; concentration not given beside the values
Settings: HepG2 cells, read-out: Inhibition
The reply should be a number in %, with the unit left off.

Lookup result for O=C(Nc1cnccn1)[C@@H]1C[C@H]2OCC[C@H]2N(Cc2ccsc2)C1 ; measured cytotoxicity at 70.5 h: -7.42

cytotoxicity at 70.5 h recorded for this compound, CC(C)N1Cc2c(C(=O)N3CCOCC3)nn(C)c2C1 , is -13.7

Per the record, c1cc(C2CCN(c3cnccn3)CC2)ncn1 has cytotoxicity at 70.5 h of 1.96

Recorded cytotoxicity at 70.5 h (compound CCc1nc(C(=O)N2CC(C)CN(C)c3ccccc32)c[nH]1 (stereo not drawn) ): -2.27

Per the records, this compound ( COC(=O)COc1nc(C(C)C)no1 ) has cytotoxicity at 70.5 h equal to -10.1

// field: cytotoxicity at 70.5 h; key: Cc1nc(-c2nnc[nH]2)sc1C(=O)N1CCCC1c1ccsc1 (stereo not drawn) ; value = -5.22

Looking up O=C(c1cccnc1O)N(Cc1ccsc1)CC1CCCO1 (stereo not drawn) , I see its cytotoxicity at 70.5 h listed as 8.65

// recorded cytotoxicity at 70.5 h for NC(=O)Cc1ccc(NC(=O)C2CCOCC2)cc1 : -3.85

# cytotoxicity at 70.5 h (compound: CNC(=O)C1CCCCN1C(=O)c1csc(-c2ccccc2)n1 (stereo not drawn) ) is -9.17

// field: cytotoxicity at 70.5 h; key: CN1CCN(c2nccc(-c3cncnc3C3CCCCC3)n2)CC1 ; value = -5.17

Per the record, COc1ccc2c(c1)CCCN(C(C)C(=O)N1CCCC1)C2 (stereo not drawn) has cytotoxicity at 70.5 h of -3.36

// cytotoxicity at 70.5 h lookup, compound = COc1ccc(C(=O)N2CC[C@](C)(O)[C@H](C)C2)cc1N1CCOCC1 , result: -8.2

Record summary for CC(C)n1nccc1C(=O)N1CCC(c2nnsc2S(C)(=O)=O)CC1 : reported cytotoxicity at 70.5 h = -6.33

Lookup result for Cn1ccnc1C1CCN(S(=O)(=O)c2ccc3c(c2)OCCO3)CC1 ; measured cytotoxicity at 70.5 h: 9.02

So, O=C(NCCSC1CCCC1)c1cc(Cl)ccn1 ? Its cytotoxicity at 70.5 h was 22.7

According to the records, this compound OCCN1CCC(CNCCOCC(F)(F)F)CC1 displays cytotoxicity at 70.5 h of 3.98

get_value(item= Clc1ccc2nc(N3CCC(NCCCC4CCOC4)CC3)sc2c1 (stereo not drawn) , readout=cytotoxicity at 70.5 h) returns 48.3

get_value(item= CC(=O)c1c(C)nn(CC(=O)N2CCCC2c2ccc(C(N)=O)s2)c1C (stereo not drawn) , readout=cytotoxicity at 70.5 h) returns -2.76

cytotoxicity at 70.5 h measured on CSCC(=O)N1CCc2nc(C)nc(NCc3ccccc3)c2CC1 = -5.43

The measured cytotoxicity at 70.5 h associated with Cn1cc(C2CCCN2C(=O)Cc2n[nH]c3ccccc23)cn1 (stereo not drawn) reads 40.1

CC(C)(C)C1CCC(NCCN2CCOCC2)CC1 (stereo not drawn) has a reported cytotoxicity at 70.5 h of -5.37

Measured cytotoxicity at 70.5 h of CCN1CCn2c(C)cnc2C12CCN(C(=O)c1ccco1)CC2 : -4.85

What the record says about NC(=O)[C@@H]1Cc2ccccc2CN1CCc1cccs1 : cytotoxicity at 70.5 h is -10

Lookup result for Cc1cnn(CCNCc2ccccc2OCc2cccnc2)c1 ; measured cytotoxicity at 70.5 h: -3.61

The compound CC(Cn1ccnc1)NS(=O)(=O)c1ccc(C#N)c(Cl)c1 (stereo not drawn) showed cytotoxicity at 70.5 h equal to -9.17

The compound listed as CCc1nc(N2CCC3(CC2)[C@H](O)C[C@@H]3O)ncc1C shows cytotoxicity at 70.5 h equal to -5.93

Documented cytotoxicity at 70.5 h of Cn1c(N2CC[C@H](O)C2)nc2cc(C(N)=O)ccc21 : 5.31

Measured cytotoxicity at 70.5 h, Cn1nc(C(C)(C)C)cc1NC(=O)Cn1ccnc1 : -10.5

compound N#Cc1ccccc1N1CCN(C(=O)NCC(=O)N2CCCC2)CC1 , cytotoxicity at 70.5 h observed: -0.138

response.value for CCn1ncc2c1C(COC)CN(Cc1nccs1)C2 (stereo not drawn) (field: cytotoxicity at 70.5 h) = 30.6

For record Cc1nc(C)n(CC2CCCN2c2ncnc3sccc23)n1 (stereo not drawn) the listed cytotoxicity at 70.5 h is -7.8

cytotoxicity at 70.5 h for CNC(=O)c1ccc(N(C)C2CCC2)nn1 is 9.71

Given item Cc1nnc2ccc(N3CCC(C(=O)Nc4nccs4)CC3)nn12 , the value recorded as its cytotoxicity at 70.5 h is 1.41

Lookup result for COc1ccc(S(=O)(=O)Nc2cccnc2-n2cncn2)cc1C ; measured cytotoxicity at 70.5 h: 0.714

So for OC[C@H]1CC[C@]2(CC1)CN(Cc1ccccn1)Cc1ccccc1O2 , the logged cytotoxicity at 70.5 h turned out to be -13.2

Value of measured cytotoxicity at 70.5 h for the entry O=C(COCc1ccccc1Cl)N1CCN(c2cnccn2)CC1 : -6.52

The reported value for CN(C)S(=O)(=O)N1CCCC(c2ccncn2)C1 (stereo not drawn) in terms of cytotoxicity at 70.5 h is -5.39

GET /value?item= CC(C)CCN1CCC2(CNS(=O)(=O)c3cccnc3O2)C1 (stereo not drawn) &field=cytotoxicity at 70.5 h returns 26.8

Lab note: measured cytotoxicity at 70.5 h of COc1ccc(CCN2CCC(N3CCN(C)C3=O)CC2)cc1 was -8.36

Record summary for CCN1CCc2cc(-c3cncn3CC(=O)NC(C)(C)C)ccc21 : reported cytotoxicity at 70.5 h = -6.27

Field cytotoxicity at 70.5 h (entry CSC(C)(C)CNC(=O)Nc1cccc(-c2nccn2C)c1 ) reads -3.46

Note to self: cytotoxicity at 70.5 h recorded for O=C(CCSc1ccccc1F)NCc1cccnc1 was -8.87

The compound listed as CCCN1CCN(C(=O)c2cnccc2C)[C@H]2CS(=O)(=O)C[C@H]21 shows cytotoxicity at 70.5 h equal to -3.96

cytotoxicity at 70.5 h in this record for COc1ncccc1CN1C[C@@H]2COC[C@]2(COc2cccnc2)C1 : -13.7

Looking up CC(=O)NCCNC(=O)CNC1CCCN(c2ccc(C)nn2)C1 (stereo not drawn) , I found its cytotoxicity at 70.5 h recorded as 17.7

Please fill in: cytotoxicity at 70.5 h reported for Cc1noc(C[C@@H]2COC[C@H]3CN(S(C)(=O)=O)C[C@@H]23)n1 = -5.3

Consider Cc1noc(C)c1CSCc1csc(CS(C)(=O)=O)n1 . Its measured cytotoxicity at 70.5 h is 0.624

Sure, the documented cytotoxicity at 70.5 h for Cc1nc(C)c(C(=O)N2CCCc3c(F)ccc(F)c32)o1 is -9.33
